Test system: A2780 ovarian carcinoma cell line
Assay details: In vitro MTS proliferation/cytotoxicity assay, A2780
Assay type: cell-based, human
Condition summary: Homo sapiens, A2780, read-out: A2780 IC5 (nM)
Metric: IC50 (nM)

[
  {
    "Compound": "C/C(=C\\c1csc(C)n1)C1C[C@H]2[C@@H](CCCC(C)[C@H](O)[C@@H](C)C(=O)C(C)(C)[C@@H](O)CC(=O)O1)N2C (some centres unmarked) [DD]",
    "Metric": "IC50",
    "Reported result": 0.25
  },
  {
    "Compound": "C/C(=C\\c1csc(C)n1)C1C[C@@H]2N[C@@H]2CCCC(C)[C@H](O)[C@@H](C)C(=O)C(C)(C)[C@@H](O)CC(=O)O1 (some centres unmarked) [Compound CC]",
    "Metric": "IC50",
    "Reported result": 3.4
  }
]
